# ASSAY PROCEDURE: qHTS for differential inhibitors of proliferation of Plasmodium falciparum line GB4 (AID 1816);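 note: parasite growth measured after 72 h incubation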; note: potency is the fitted concentration of half-maximal effect
# COND: Plasmodium falciparum GB4 proliferation inhibition; series mostly up to 28.7 µM
Records with an inconclusive call do not appear. Calls of active or inactive are those of the source. Calls come from the whole dose curve; as a rule, active = well fitted curve in the direction sought with a large enough effect; inconclusive = small, poorly fitted or top-dose-only effect, or another doubt; inactive = no such curve, though single readings can be large or run the other way.
ENDPOINT NAME: Potency

{"MOLECULE": "OC(CCN1CCCCC1)(c1ccccc1)C1CCCCC1 (stereo not drawn)", "VALUE MEASURED": "10 µM (active)"}
{"MOLECULE": "CCN1CCC[C@H]1CNC(=O)c1c(O)c(Cl)cc(Cl)c1OC", "VALUE MEASURED": "inactive"}
{"MOLECULE": "CCC(=O)c1ccc2c(c1)N(CCCN(C)C)c1ccccc1S2", "VALUE MEASURED": "11.2 µM (active)"}
{"MOLECULE": "COCC(=O)O[C@]1(CCN(C)CCCc2nc3ccccc3[nH]2)CCc2cc(F)ccc2[C@@H]1C(C)C", "VALUE MEASURED": "0.141 µM (active)"}
{"MOLECULE": "NC(Cc1ccc(Cl)cc1)C(=O)O (stereo not drawn)", "VALUE MEASURED": "inactive"}
{"MOLECULE": "O=C(O)CCCCCCCC(=O)O", "VALUE MEASURED": "inactive"}
{"MOLECULE": "NCCCNCCSP(=O)(O)O", "VALUE MEASURED": "inactive"}
{"MOLECULE": "CCCN1C[C@H](CSC)C[C@@H]2c3cccc4[nH]cc(c34)C[C@H]21", "VALUE MEASURED": "5.62 µM (active)"}
{"MOLECULE": "CCN(Cc1ccncc1)C(=O)C(CO)c1ccccc1 (stereo not drawn)", "VALUE MEASURED": "inactive"}
{"MOLECULE": "CN(C)CCCN1c2ccccc2Sc2ccc(C(F)(F)F)cc21", "VALUE MEASURED": "11.2 µM (active)"}
{"MOLECULE": "CCCCCN(CCCCC)C(=O)C(CCC(=O)O)NC(=O)c1ccc(Cl)c(Cl)c1 (stereo not drawn)", "VALUE MEASURED": "inactive"}
{"MOLECULE": "CC(=O)OC(C)C[N+](C)(C)C (stereo not drawn)", "VALUE MEASURED": "inactive"}
{"MOLECULE": "CC(C(=O)O)c1ccc(CC2CCCC2=O)cc1 (stereo not drawn)", "VALUE MEASURED": "inactive"}

====

# Tested on: CP203
# ASSAY PROCEDURE: qHTS profiling for inhibitors of Plasmodium falciparum proliferation (AID 504749); note: nearly all actives have a fitted effect of over 60% in size; note: potency is the fitted concentration of half-maximal effect
# COND: P. falciparum in erythrocytes, SYBR Green DNA, 72 h; series mostly up to 28.7 µM
Inconclusive results are not listed. Calls of active or inactive are those of the source. The call rests on the fitted dose curve; in most records, active means well fitted inhibition curve with a large enough effect; inconclusive means small, poorly fitted or top-dose-only effect; inactive means flat fitted curve, though single readings scatter.

{"COMPOUND": "CCn1cc(C(=O)O)c(=O)c2cc3c(cc21)OCO3", "TGT": "CP203", "Potency": "inactive"}
{"COMPOUND": "CCN(CC)CCOCCOC(=O)C1(c2ccccc2)CCCC1", "TGT": "CP203", "Potency": "6.75 µM (active)"}
{"COMPOUND": "CCCC(C(=O)OCCN(CC)CC)(c1ccccc1)c1ccccc1", "TGT": "CP203", "Potency": "12 µM (active)"}
{"COMPOUND": "O=C(O)CN(CCOCCOCCN(CC(=O)O)CC(=O)O)CC(=O)O", "TGT": "CP203", "Potency": "inactive"}
{"COMPOUND": "Cc1ccc(S(=O)(=O)NC(=O)NN2CCCCCC2)cc1", "TGT": "CP203", "Potency": "inactive"}
{"COMPOUND": "CCn1ccnc1CC1COc2ccccc2O1 (centres undefined)", "TGT": "CP203", "Potency": "inactive"}
{"COMPOUND": "CCN1CCC[C@H]1CNC(=O)c1c(O)c(Cl)cc(Cl)c1OC", "TGT": "CP203", "Potency": "inactive"}
{"COMPOUND": "O=C(O)CCCCCCCC(=O)O", "TGT": "CP203", "Potency": "inactive"}
{"COMPOUND": "NC/C=C/C(=O)O", "TGT": "CP203", "Potency": "inactive"}
{"COMPOUND": "CCN1CCc2nc(N)oc2CC1", "TGT": "CP203", "Potency": "inactive"}
{"COMPOUND": "CCCN(CCC)CCc1cccc2c1CC(=O)N2", "TGT": "CP203", "Potency": "inactive"}
{"COMPOUND": "Cc1nc2c([nH]1)c(=O)n(C)c(=O)n2Cc1ccco1", "TGT": "CP203", "Potency": "inactive"}
{"COMPOUND": "C#CCN(C)CCCOc1ccc(Cl)cc1Cl", "TGT": "CP203", "Potency": "inactive"}
{"COMPOUND": "CN(C)CCN(Cc1cccs1)c1ccccn1", "TGT": "CP203", "Potency": "12 µM (active)"}

====

# ASSAY PROCEDURE: qHTS of pediatric cancer cell lines to identify multiple opportunities for drug repurposing: Confirmatory screen for RD cells (AID 1347124);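 note: cells exposed to compound for 48 h before viability readout; nearly all actives have a fitted effect of over 65% in size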; note: potency is the fitted concentration of half-maximal effect
# COND: RD rhabdomyosarcoma cell viability; series mostly up to 45.9 µM
Inconclusive results are not listed. Active and inactive are the calls of the source. Calls come from the whole dose curve; as a rule, active = well fitted cell-killing curve with a large enough effect; inconclusive = small, poorly fitted or top-dose-only effect, or effect the other way; inactive = no such curve, though single readings can be large or run the other way.
ENDPOINT NAME: Potency

{"COMPOUND": "Nc1nc(N)c2nc(-c3ccccc3)c(N)nc2n1", "VALUE MEASURED": "inactive"}
{"COMPOUND": "C[C@]12CC[C@@H]3c4ccc(O)cc4C[C@@H](CCCCCCCCCS(=O)CCCC(F)(F)C(F)(F)F)[C@H]3[C@@H]1CC[C@@H]2O (stereo not given in full)", "VALUE MEASURED": "inactive"}
{"COMPOUND": "CN1C[C@H](C(=O)N[C@]2(C)O[C@@]3(O)[C@@H]4CCCN4C(=O)[C@H](Cc4ccccc4)N3C2=O)C[C@@H]2c3cccc4[nH]cc(c34)C[C@H]21", "VALUE MEASURED": "inactive"}
{"COMPOUND": "C[n+]1cc2c3c(ccc2c2ccc4cc5c(cc4c21)OCO5)OCO3", "VALUE MEASURED": "1.82 µM (active)"}
{"COMPOUND": "C[C@]12C=CC(=O)C=C1CC[C@H]1[C@@H]3C[C@@H](O)[C@](O)(C(=O)CO)[C@@]3(C)C[C@H](O)[C@@]12F", "VALUE MEASURED": "7.37 µM (active)"}

====

# ASSAY PROCEDURE: qHTS of pediatric cancer cell lines to identify multiple opportunities for drug repurposing: Confirmatory screen for SK-N-MC cells (AID 1347111);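 note: potency is the fitted concentration of half-maximal effect; cells exposed to compound for 48 h before the readout; nearly all actives have a fitted effect of over 70% in size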
# COND: SK-N-MC cell viability
Inconclusive results are not listed. Activity calls are given as the source filed them. Calls follow the shape of the dose curve; as a rule, active = well fitted cell-killing curve with a large enough effect; inconclusive = small, poorly fitted or top-dose-only effect; inactive = no such curve, though single readings can be large or run the other way.
Recorded measurements of Potency, one per entry
ENDPOINT NAME: Potency

{"GIVEN SMILES": "CN(C)CCCN1c2ccccc2Sc2ccc(C(F)(F)F)cc21", "VALUE MEASURED": "26.1 µM (active)"}
{"GIVEN SMILES": "CN/C(=C\\[N+](=O)[O-])NCCSCc1ccc(CN(C)C)o1", "VALUE MEASURED": "11.7 µM (active)"}
{"GIVEN SMILES": "C[C@]12C=CC(=O)C=C1CC[C@H]1[C@@H]3C[C@@H](O)[C@](O)(C(=O)CO)[C@@]3(C)C[C@H](O)[C@@]12F", "VALUE MEASURED": "7.37 µM (active)"}
{"GIVEN SMILES": "C[n+]1cc2c3c(ccc2c2ccc4cc5c(cc4c21)OCO5)OCO3", "VALUE MEASURED": "1.29 µM (active)"}

====

# Test system: HEK293
# ASSAY PROCEDURE: Cytotoxic Profiling of Annotated Libraries Using Quantitative High-Throughput Screening (AID 1296008); note: % is set by controls: 0 for no effect and ±100 for the full control effect; nearly all actives have a fitted effect of over 60% in size
# COND: Five cell lines viability, CellTiter-Glo ATP luminescence, 48-72 h; active compounds read low
Results filed as inconclusive are left out.
We begin with a simple list: items and their reported max response.

{"COMPOUND": "CCCOc1ccccc1-c1nc2n[nH]nc2c(=O)[nH]1", "max response, %": 2.92}
{"COMPOUND": "COC(=O)[C@@H](N)Cc1ccc(O)c(O)c1", "max response, %": -4.7}
{"COMPOUND": "CC(C)(C)NCC(O)c1cc(O)cc(O)c1 (configuration not stated)", "max response, %": -2.84}
{"COMPOUND": "O=C(O)CN(CCOCCOCCN(CC(=O)O)CC(=O)O)CC(=O)O", "max response, %": 0.265}
{"COMPOUND": "NCCCNCCSP(=O)(O)O", "max response, %": -18.5}
{"COMPOUND": "NC(=O)c1cn(Cc2c(F)cccc2F)nn1", "max response, %": 4.15}
{"COMPOUND": "CC(C)[N+](C)(CCOC(=O)C1c2ccccc2Oc2ccccc21)C(C)C", "max response, %": -1.62}
{"COMPOUND": "CC(C)(Oc1ccc(CCNC(=O)c2ccc(Cl)cc2)cc1)C(=O)O", "max response, %": -102}
{"COMPOUND": "NC(=O)N1c2ccccc2C=Cc2ccccc21", "max response, %": 2.7}
{"COMPOUND": "CC(C)NNC(=O)c1ccncc1", "max response, %": -10.4}
{"COMPOUND": "CCOC(=O)c1cnc2c(cnn2CC)c1NN=C(C)C", "max response, %": 2.79}
{"COMPOUND": "C[C@@H](O)[C@H]1C(=O)N2C(C(=O)O)=C(SCCN=CN)C[C@H]12", "max response, %": -4.83}
